# TESTED_TARGET: T1, recombinant human IL-23R/Fc chimera (R&D Systems) (human, UniProt Q5VWK5 24-355)
# T1 construct: Bought; also called rhIL23RFc
# T1 sequence (looked up): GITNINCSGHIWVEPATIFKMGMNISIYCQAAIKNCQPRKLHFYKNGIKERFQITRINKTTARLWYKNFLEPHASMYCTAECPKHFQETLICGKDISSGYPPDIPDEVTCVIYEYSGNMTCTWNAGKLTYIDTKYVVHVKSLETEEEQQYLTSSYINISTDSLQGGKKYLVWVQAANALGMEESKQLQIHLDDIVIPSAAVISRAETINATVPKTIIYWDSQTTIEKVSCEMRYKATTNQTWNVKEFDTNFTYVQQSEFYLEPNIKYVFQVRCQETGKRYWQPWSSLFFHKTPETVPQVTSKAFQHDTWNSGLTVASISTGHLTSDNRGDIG
# ASSAY_METHOD_TEXT: SPR
Mark T for kon under 100000 M⁻¹ s⁻¹, F if at or over.

BINDER	ASSIGNED_CLASS
001-87.A9E monomeric CTLD (designed binder, C-terminal tag not specified) ALQTVCLKGTKVHMKCFLAFTQTKTFHEASEDCISRGGTLSTPQTGSENDALYEYLRQSVGNEAEIWLGLNGSALTNTWVDMTGARIAYKNWETEITAQPDGGLGYWGENCAVLSGAANGKWFDKRCRDQLPYICQFGIV	T
001-89.C3C monomeric CTLD (designed binder, C-terminal tag not specified) ALQTVCLKGTKVHMKCFLAFTQTKTFHEASEDCISRGGTLSTPQTGSENDALYEYLRQSVGNEAEIWLGLNANRRRTMWVDMTGARIAYKNWETEITAQPDGGMGVWGENCAVLSGAANGKWFDKRCRDQLPYICQFGIV	T
001-87.A8E monomeric CTLD (designed binder, C-terminal tag not specified) ALQTVCLKGTKVHMKCFLAFTQTKTFHEASEDCISRGGTLSTPQTGSENDALYEYLRQSVGNEAEIWLGLNANPAQDLWVDMTGARIAYKNWETEITAQPDGGFGVWGENCAVLSGAANGKWFDKRCRDQLPYICQFGIV	T
105-20-1H7 ATRIMER complex (designed binder) EPPTQKPKKIVNAKKDVVNTKMFEELKSRLDTLAQEVALLKEQQALQTVCLKGTKVHMKCFLAFTQTKTFHEASEDCISRGGTLSTPQTGSENDALYEYLRQSVGNEAEIWLGLNGSAGTNTWVDMTGARIAYKNWETEITAQPDGGFGYFGENCAVLSGAANGKWFDKRCRDQLPYICQFGIV	F
101-80-5H3 ATRIMER complex (designed binder) EPPTQKPKKIVNAKKDVVNTKMFEELKSRLDTLAQEVALLKEQQALQTVCLKGTKVHMKCFLAFTQTKTFHEASEDCISRGGTLSTPQTGSENDALYEYLRQSVGNEAEIWLGLNGSALTNTWVDMTGARIAYKNWEPPAPYHPMAAGVFGENCAVLSGAANGKWFDKRCRDQLPYICQFGIV	T
001-69.4G8 monomeric CTLD (designed binder, C-terminal tag not specified; not shown: C-terminal tag: 6xHis (pANA1), HA-His (pANA3) or HA-StrepII (pANA12)) ALQTVCLKGTKVHMKCFLAFTQTKTFHEASEDCISRGGTLSTPQTGSENDALYEYLRQSVGNEAEIWLGLNGSRRSGVWVDMTGARIAYKNWETEITAQPDGGFGVFGENCAVLSGAANGKWFDKRCRDQLPYICQFGIV	F
001-69.4G8 ATRIMER complex (designed binder, not shown: C-terminal tag: His/Myc (pANA4) or HA-StrepII (pANA10)) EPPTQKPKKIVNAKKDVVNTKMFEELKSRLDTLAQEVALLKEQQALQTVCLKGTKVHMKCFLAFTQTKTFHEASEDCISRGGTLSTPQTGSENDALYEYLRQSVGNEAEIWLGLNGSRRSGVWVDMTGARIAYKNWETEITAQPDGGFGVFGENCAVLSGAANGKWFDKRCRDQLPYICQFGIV	F
001-69.4G8 ATRIMER complex, mammalian-cell produced (designed binder, not shown: small tags and cut ends, Homotrimer of this chain (ATRIMER complex); produced in HEK293 cells, glycosylation possible., Mammalian-cell produced material; also called 4G8 m; 4G8 TN m) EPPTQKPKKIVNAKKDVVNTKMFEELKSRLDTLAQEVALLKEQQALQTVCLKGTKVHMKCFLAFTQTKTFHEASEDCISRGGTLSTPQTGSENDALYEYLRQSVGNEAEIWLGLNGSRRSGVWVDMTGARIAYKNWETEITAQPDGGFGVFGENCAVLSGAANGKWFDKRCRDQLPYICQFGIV	F
105-08-2G7 ATRIMER complex (designed binder) EPPTQKPKKIVNAKKDVVNTKMFEELKSRLDTLAQEVALLKEQQALQTVCLKGTKVHMKCFLAFTQTKTFHEASEDCISRGGTLSTPQTGSENDALYEYLRQSVGNEAEIWLGLNGSPKTGTWVDMTGARIAYKNWETEITAQPDGGFGYFGENCAVLSGAANGKWFDKRCRDQLPYICQFGIV	F
056-41.B9B ATRIMER complex (designed binder, not shown: C-terminal tag: His/Myc (pANA4) or HA-StrepII (pANA10)) EPPTQKPKKIVNAKKDVVNTKMFEELKSRLDTLAQEVALLKEQQALQTVCLKGTKVHMKCFLAFTQTKTFHEASEDCISRGGTLSTPQTGSENDALYEYLRQSVGNEAEIWLGLNAPPDLGLWVDMTGARIAYKNWETEITAQPDGGWGVWGENCAVLSGAANGKWFDKRCRDQLPYICQFGIV	T
001-89.C7F monomeric CTLD (designed binder) ALQTVCLKGTKVHMKCFLAFTQTKTFHEASEDCISRGGTLSTPQTGSENDALYEYLRQSVGNEAEIWLGLNGSLLTGLWVDMTGARIAYKNWETEITAQPDGGYGAWGENCAVLSGAANGKWFDKRCRDQLPYICQFGIV	T
105-20-1B3 ATRIMER complex (designed binder) EPPTQKPKKIVNAKKDVVNTKMFEELKSRLDTLAQEVALLKEQQALQTVCLKGTKVHMKCFLAFTQTKTFHEASEDCISRGGTLSTPQTGSENDALYEYLRQSVGNEAEIWLGLNGSALTNTWVDMTGARIAYKNWETEITAQPDGGFGYFGENCAVLSGAANGKWFDKRCRDQLPYICQFGIV	F
